- Study target: Dopamine D2 receptor (hD2L) (Homo sapiens, UniProt P14416)
- Sequence (P14416 whole entry): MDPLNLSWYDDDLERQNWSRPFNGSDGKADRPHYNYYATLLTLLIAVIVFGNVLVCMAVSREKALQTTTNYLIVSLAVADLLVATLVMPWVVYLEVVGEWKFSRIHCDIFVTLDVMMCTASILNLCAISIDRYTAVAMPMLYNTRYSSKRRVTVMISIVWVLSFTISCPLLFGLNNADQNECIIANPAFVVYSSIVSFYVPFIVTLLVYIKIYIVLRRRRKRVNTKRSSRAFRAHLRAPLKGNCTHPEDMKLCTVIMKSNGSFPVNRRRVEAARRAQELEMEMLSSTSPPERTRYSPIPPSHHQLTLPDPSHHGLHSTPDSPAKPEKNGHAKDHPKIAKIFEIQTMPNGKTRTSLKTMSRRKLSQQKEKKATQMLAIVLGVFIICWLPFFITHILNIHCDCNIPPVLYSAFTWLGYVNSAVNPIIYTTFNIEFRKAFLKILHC
- Protocol summary: Dopamine D2 Receptor Binding Assay ([3H]spiperone, CHO-hD2L membranes)
- Test context: [3H]spiperone 0.4 nM, membrane preparation from CHO-hD2L cells
pKi: −log10 of the molar value.
Measurement kind: pKi

1) O=C1CCCc2ccc(OCCCCN3CCN(c4cccc5ccccc45)CC3)nc2N1 : 8.41
2) N#Cc1ccc2cccc(N3CCN(CCCCOc4ccc5c(n4)NC(=O)NCC5)CC3)c2c1 : 9.40

a. O=C1CCCc2ccc(OCCCCN3CCN(c4cccc5c4CCC5)CC3)nc2N1
b. COc1ccc2cccc(N3CCN(CCCCOc4ccc5c(n4)NC(=O)NCC5)CC3)c2c1
c. O=C1NCCc2ccc(OCCCCN3CCN(c4cccc(C5CC5)n4)CC3)cc2N1
input: # ascending order, key=pKi Answer by writing out the labels in the requested order.
output: c, a, b
(c: 8.74, a: 9.00, b: 9.40)
